Test system: NCI-H226 lung
test-method-notes: NCI-60 one-dose screen, 48 h
assay-conditions: 10 µM unless noted
The panel holds about 83,000 compounds, 20% with a hit somewhere; the sample as a whole holds those more often. Calls of active or inactive are those of the source. The calls were made as follows: active = growth percent below 10; inactive = the rest.
Form entry, call: pick from active, inactive

Below, 5 compounds whose answers are already recorded.
* NS(=O)(=O)c1cccc(NC(=O)C(=O)C2C(=O)Nc3ccccc32)c1 (stereo not drawn) | inactive
* CCNNC(=O)[C@@H]1[C@H](c2cc(OC)c(OC)c(OC)c2)c2cc3c(cc2[C@H](O)[C@H]1CO)OCO3 | active
* COc1ccc(-c2nc(N/N=C/c3c[nH]c4ccccc34)nc(N3CCOCC3)c2C#N)cc1 | inactive
* Clc1ccc2c(c1)c(-c1ccccc1)nc1nncn12 | inactive
* O=C1CCCCCCCCC(O)C(O)CCCC(c2cccs2)O1 (stereo not drawn) | inactive

Could you kindly confirm the outcome this assay logged for COc1ccc(C2CC(c3cccc(Nc4ccncc4)c3)=NN2c2ccccc2)cc1 (stereo not drawn) ?
inactive

Field entry: C#CCNC(=O)[C@H](Cc1ccccc1)NC(=O)[C@]12CC[C@@H](C(=C)C)[C@@H]1[C@H]1CC[C@@H]3[C@@]4(C)Cc5c([nH]c6ccccc56)C(C)(C)[C@@H]4CC[C@@]3(C)[C@]1(C)CC2
inactive

Field entry: COc1nccnn1
inactive

Field entry: O=CNc1cc(Cl)cc(Cl)c1
inactive

Field entry: COc1ccc(C2CC(n3nnnc3-c3ccccc3)=NN2)cc1 (stereo not drawn)
inactive

Field entry: Cc1cc(C)c(C=O)c(C)c1
inactive

Field entry: COc1cc(NCC(C)(O)CN(CC(C)C)CC(C)C)c2nc(C)ccc2c1 (stereo not drawn)
inactive

Field entry: CCN(CCNc1cc(OC)cc2cccnc12)CCc1ccccc1
inactive

###

Tested on: NCI-H460 lung
test-method-notes: NCI-60 one-dose screen, 48 h
assay-conditions: 10 µM unless noted
The panel holds about 83,000 compounds, 20% with a hit somewhere; the sample as a whole holds those more often. Calls of active or inactive are those of the source. Rule for the calls: active = growth percent below 10; inactive = the rest.
Form entry, call: pick from y = active, n = inactive

Below, 5 molecules whose answers are already recorded.
- COc1ccc(/C=C/C(=O)c2ccc(Nc3ncnc4ccccc34)cc2)cc1OC: n
- FC(F)(F)c1cccc(Nc2ccccc2)c1: n
- C=CCn1c(SCC(=O)Nc2ccc(C(=O)/C=C/c3cc(OC)c(OC)c(OC)c3)cc2)nnc1-c1cc(-c2ccc(S(C)(=O)=O)cc2)nc2ccccc12: n
- COc1cc(C(=O)c2cnc(-c3ccc4cc[nH]c4c3)[nH]2)cc(OC)c1OC: y
- COc1ccc(-c2nc(SCC(C)C)nc(N/N=C(/C)c3ccc(OC)c(OC)c3)c2C#N)cc1: n

# evaluate next
Could you kindly confirm the outcome this assay logged for O=c1[nH]nc(-c2ccc(Br)cc2)cc1Cc1ccc(O)cc1 ?
n

###

Tested on: UACC-62 melanoma
test-method-notes: NCI-60 one-dose screen, 48 h
assay-conditions: 10 µM unless noted
Protocol: Growth inhibition of the UACC-62 human tumor cell line is measured as a screen for anti-cancer activity. Cells are grown in 96 well plates and exposed to the test compound for 48 hours. Compounds are tested at a single concentration, which is 10^-5 M for most compounds. The reported endpoint is percent growth (GI% or GIPRCNT), where numbers from 0 - 100% represent growth inhibition, and numbers from -100% - 0 represent cell death. For example, a value of 40 represents 60% growth inhibition. […]
This is part of a sample that, as a whole, favours compounds with a hit. Of some 83,000 tested, about 20% had one in any assay. Active and inactive are the calls of the source. Rule for the calls: active = growth percent below 10; inactive = the rest.
Form entry, call: pick from active, inactive

- CCN(CC)CCCC(Nc1c2ccc(Cl)cc2nc2ccc(OC)cc12)c1ccc(Cl)cc1 (stereo not drawn): active
- O=c1[nH]nc(-c2ccc(Cl)cc2)cc1Cc1cccc([N+](=O)[O-])c1: inactive
- N#Cc1ccc(-c2ccc3c(c2)NC(=O)/C3=C\c2ccc[nH]2)cc1: inactive

Could you kindly confirm the outcome this assay logged for COc1ccc(C(O)c2cc3c(N)c(C(=O)Nc4ccc(Cl)cc4)sc3nc2C)cc1 (stereo not drawn) ?
inactive

Field entry: CC1CCN(C(=O)OCc2nc3nc(Cl)nc(N4CCOCC4)c3[nH]2)CC1
active

Field entry: COc1ccc(NC(=O)c2sc3nc(C)c(C(=O)CCc4cccc(OC)c4)cc3c2N)cc1
inactive

Field entry: COC(=O)CCCCCCCCC1(C)C=CC(C(C)O)=CC1 (stereo not drawn)
inactive

Field entry: CN(C)C(C(N)=O)c1ccc(Cl)cc1 (stereo not drawn)
inactive
